Each recorded value in this set is attributed to patent US20240174641A1.

# Measured on: STING (Canis lupus familiaris, UniProt A0A8I3MH52)
# Sequence (A0A8I3MH52 1-374): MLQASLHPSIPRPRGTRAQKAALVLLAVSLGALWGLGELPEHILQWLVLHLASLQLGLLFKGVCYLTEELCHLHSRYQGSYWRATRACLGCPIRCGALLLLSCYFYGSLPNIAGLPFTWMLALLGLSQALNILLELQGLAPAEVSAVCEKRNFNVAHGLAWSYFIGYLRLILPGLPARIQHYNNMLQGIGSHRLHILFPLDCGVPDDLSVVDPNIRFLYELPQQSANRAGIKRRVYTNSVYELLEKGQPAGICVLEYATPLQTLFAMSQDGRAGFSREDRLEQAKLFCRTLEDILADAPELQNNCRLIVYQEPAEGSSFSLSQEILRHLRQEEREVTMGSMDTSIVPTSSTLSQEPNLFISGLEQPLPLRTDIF
# Assay protocol: Dog whole blood (dWB) assay, IFNb secretion by ELISA
# Condition info: canine Interferon-beta (IFNb) ELISA, 4 h incubation at 37° C.
Outcome measure: EC50 (nM)
State the answer as a number, implicitly in nM.

Previously resolved entries follow.
* CC(=O)N1CCN(c2ccc(-n3nc(-c4c(F)ccc5nn(C)cc45)c4cccc(C)c43)cn2)CC1 | 140
* Cc1c(F)ccc2c(-c3cccc4nn(C)c(F)c34)nn(-c3ccc(N4C[C@@H]5[C@H](C4)[C@H]5C(=O)O)nc3)c12 | 458

**Q:** API: value(readout= EC50, system= STING (Canis lupus familiaris, UniProt A0A8I3MH52), query= Cc1c(F)ccc2c(-c3c(F)ccc4nn(C)cc34)nn(-c3ccc(N4CCC(C(=O)O)CC4)nc3)c12 )
**A:** 330

**Q:** Form field - read-out: EC50; system: STING (Canis lupus familiaris, UniProt A0A8I3MH52); submitted item: CC(=O)N1CCN(c2ccc(-n3nc(-c4cccc5nn(C)c(F)c45)c4ccc(F)c(C)c43)cn2)CC1 [Example 61]
**A:** 245

**Q:** Checklist item: EC50 tested on STING (Canis lupus familiaris, UniProt A0A8I3MH52), entry Cc1cccc2c(-c3c(F)ccc4nn(C)c(F)c34)nn(-c3ccc(N4C[C@@H]5[C@H](C4)[C@H]5C(=O)O)nc3)c12 , value?
**A:** 160

**Q:** // lookup EC50 | system=STING (Canis lupus familiaris, UniProt A0A8I3MH52) | key= Cc1cccc2c(-c3c(F)ccc4nn(C)cc34)nn(-c3ccc(N4CC5CCC4CC5C(=O)O)nc3)c12 (single isomer, unassigned) [Example 28-4]
**A:** 206
